Test system: A2780
Experiment: Cellular proliferation assay (Alamar blue), A2780
Format: cell-based
Details: Homo sapiens, 10% FCS, 72 hours with compound, Alamar blue 24 h, read-out: A2780 (cellular proliferation assay, Table 4) (converted)
Listed next: entries and their corresponding IC50.
// return numeric value only (unit: nM, not printed)

- smiles-data: "COc1ccc2cc1CN(C)CCNC(=O)[C@@H]1CCCN1Cc1cc(Br)cc(c1)Nc1nccc-2n1"
  system-under-test: "A2780"
  IC50, nM: 1660

Let us examine a further case.
// IC50 lookup, key: CN1CCCNC(=O)CN2CCN(CC2)Cc2cc(cc(N3CCOCC3)c2)Nc2nccc(n2)-c2ccc(cc2)C1
2340
